All values here come from the supplement of paper PMC9446081.

Give measured relative enzymatic activity for each item. Keep answers brief.
- Experimental System: GlmU (UniProt A7ZTU1)
- Sequence (A7ZTU1 whole entry, looked up): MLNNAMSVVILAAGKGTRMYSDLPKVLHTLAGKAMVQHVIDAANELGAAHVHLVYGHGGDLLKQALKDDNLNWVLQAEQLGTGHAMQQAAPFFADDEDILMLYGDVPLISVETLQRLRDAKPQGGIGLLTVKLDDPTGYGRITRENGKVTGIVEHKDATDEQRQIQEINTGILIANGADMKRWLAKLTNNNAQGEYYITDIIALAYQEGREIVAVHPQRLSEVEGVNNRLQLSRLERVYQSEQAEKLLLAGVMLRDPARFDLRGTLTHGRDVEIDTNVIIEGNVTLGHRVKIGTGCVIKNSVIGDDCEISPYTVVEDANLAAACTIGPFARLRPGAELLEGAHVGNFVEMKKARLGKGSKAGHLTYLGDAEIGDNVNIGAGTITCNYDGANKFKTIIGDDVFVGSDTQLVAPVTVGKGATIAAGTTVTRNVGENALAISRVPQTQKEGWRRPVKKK
- Assay Comment: relative enzymatic activity vs untreated control (fraction); higher = less inhibition
- Condition Details: 100 µM; incubation time: 2 h at 37 C

Worked set:
# Molecule, relative enzymatic activity
records = [
    ("CC1(C)SC2C(N3C(=O)C(c4ccccc4)NC3(C)C)C(=O)N2C1C(=O)[O-].[K+] (stereo not drawn)", 0.948),
    ("CO/N=C(\\C(=O)N[C@@H]1C(=O)N2C(C(=O)O)=C(CSC(=O)c3ccco3)CS[C@H]12)c1csc(N)n1", 0.492),
]

GET /value?item= "CO/N=C(\C(=O)N[C@@H]1C(=O)N2C(C(=O)O)=C(C)CS[C@H]12)c1csc(N)n1" &field=relative enzymatic activity returns 1.02

----------
- Tested on: DNA gyrase
- Assay Comment: relative enzymatic activity vs untreated control (fraction); higher = less inhibition
- Condition Details: 100 µM; incubation time: 2 h at 37 C
For each of the compounds below, state its relative enzymatic activity.
Give bare numbers.

# Compound, relative enzymatic activity
measured = [
    ("Cc1scc2c1N(C(=O)CN1CCN(C)CC1)c1ccccc1NC2=O.Cl", 0.878),
    ("CON=C(C(=O)NC1C(=O)N2C(C(=O)O)=C(C[N+]3(C)CCCC3)CSC12)c1csc(N)n1.[Cl-] (stereo not drawn)", 0.384),
    ("CCCCCCCCCCCCC[N+](C)(C)Cc1ccccc1", 0.675),
    ("C/C(=C\\C(=O)OCCCCCCCCC(=O)O)C[C@@H]1OC[C@H](C[C@@H]2O[C@H]2[C@@H](C)[C@H](C)O)[C@@H](O)[C@H]1O", 0.849),
    ("CC(NCCCc1cccc(C(F)(F)F)c1)c1cccc2ccccc12.Cl (stereo not drawn)", 1.09),
    ("CNC1C(O)C(NC)C2OC3(O)C(=O)CC(C)OC3OC2C1O.Cl.Cl (stereo not drawn)", 0.963),
    ("O=C1OC(=O)[C@H]2[C@@H]1[C@H]1CC[C@H]2O1", 0.864),
    ("CC[C@H]1OC(=O)[C@H](C)[C@@H](O[C@H]2C[C@@](C)(OC)[C@@H](O)[C@H](C)O2)[C@H](C)[C@@H](O[C@@H]2O[C@H](C)C[C@H](N(C)C)[C@H]2O)[C@](C)(OC)C[C@@H](C)C(=O)[C@H](C)[C@@H](O)[C@]1(C)O", 0.647),
]

For each listed entry, give its relative enzymatic activity.
1. CN[C@@H]1[C@H](O)[C@H](NC)[C@H]2O[C@@]3(O)C(=O)C[C@@H](C)O[C@H]3O[C@@H]2[C@H]1O
2. CC1COc2c(C3(N)CC3)c(F)cc3c(=O)c(C(=O)O)cn1c23.CS(=O)(=O)O (stereo not drawn)
3. Cl.O=C1CC2(CCCC2)CC(=O)N1CCCCN1CCN(c2ncccn2)CC1
4. NC[C@H]1OB(O)c2c(OCCCO)cccc21
5. O=c1[nH]c(=O)n([C@@H]2C[C@@H](O)[C@@H](CO)O2)cc1F
6. CN1CCN(c2cc3c(cc2F)c(=O)c(C(=O)O)cn3-c2ccc(F)cc2)CC1.Cl
7. CCN1CCN(c2cc3c(cc2F)c(=O)c(C(=O)O)cn3C2CC2)CC1
8. COc1c(N2CC3CCCNC3C2)c(F)cc2c(=O)c(C(=O)O)cn(C3CC3)c12.Cl (stereo not drawn)

[0.826, 0.0382, 0.812, 0.84, 1.07, 0.0325, 0.0177, 0.0344]

Note to self: relative enzymatic activity recorded for "CC[C@H]1OC(=O)[C@H](C)[C@@H](O[C@H]2C[C@@](C)(OC)[C@@H](O)[C@H](C)O2)[C@H](C)[C@@H](O[C@@H]2O[C@H](C)C[C@H](N(C)C)[C@H]2O)[C@](C)(O)C[C@@H](C)CN(C)[C@H](C)[C@@H](O)[C@]1(C)O" was 0.608
